Each entry below carries its reported Kd.
tested_target: human epidermal growth factor receptor 2 (Homo sapiens, UniProt P04626)
assay_name: SPR
Write down the numeric answer in nM and omit the unit.

binder	units	Kd
hu2C4-g1.1 IgG1 (antibody, V domains shown) VH: EVQLVESGGGLVQPGGSLRLSCAASGFTFTDYTMDWVRQAPGKGLEWVADVNPNSGGSIYNQRFKGRFTLSVDRSKNTLYLQMNSLRAEDTAVYYCARAIAGGVLLDYWGQGTLVTVSS VL: DIQMTQSPSSLSASVGDRVTITCKASQDVSIGVAWYQQKPGKAPKLLIYSASYRYTGVPSRFSGSGSGTDFTLTISSLQPEDFATYYCQQYYIYPYTFGQGTKVEIK	nM	25
hu2C4-g2.2 IgG1 (antibody, V domains shown) VH: EVQLVESGGGLVQPGGSLRLSCAASGFTFTDYTMDWVRQAPGKGLEWVADVNPNSGGSIYNQRFKGRFTLSVDRSKNTLYLQMNSLRAEDTAVYYCARSSRPPWFFDYWGQGTLVTVSS VL: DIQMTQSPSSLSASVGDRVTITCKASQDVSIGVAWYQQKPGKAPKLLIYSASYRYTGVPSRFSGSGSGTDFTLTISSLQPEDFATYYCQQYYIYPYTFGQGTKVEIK	nM	23
hu2C4-g1.2 IgG1 (antibody, V domains shown) VH: EVQLVESGGGLVQPGGSLRLSCAASGFTFTDYTMDWVRQAPGKGLEWVADVNPNSGGSIYNQRFKGRFTLSVDRSKNTLYLQMNSLRAEDTAVYYCARAITNEVLLDYWGQGTLVTVSS VL: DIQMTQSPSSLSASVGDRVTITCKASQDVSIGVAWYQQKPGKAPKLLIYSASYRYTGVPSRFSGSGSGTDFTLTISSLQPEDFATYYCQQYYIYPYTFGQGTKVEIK	nM	28
hu2C4-g2.1 IgG1 (antibody, V domains shown) VH: EVQLVESGGGLVQPGGSLRLSCAASGFTFTDYTMDWVRQAPGKGLEWVADVNPNSGGSIYNQRFKGRFTLSVDRSKNTLYLQMNSLRAEDTAVYYCARSSTPPFFMDYWGQGTLVTVSS VL: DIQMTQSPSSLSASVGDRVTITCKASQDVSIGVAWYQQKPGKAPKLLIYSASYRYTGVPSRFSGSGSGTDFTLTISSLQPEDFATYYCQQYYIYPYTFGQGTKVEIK	nM	25
hu2C4-g3.2 IgG1 (antibody, V domains shown) VH: EVQLVESGGGLVQPGGSLRLSCAASGFTFTDYTMDWVRQAPGKGLEWVADVNPNSGGSIYNQRFKGRFTLSVDRSKNTLYLQMNSLRAEDTAVYYCARLLAYGYLDYWGQGTLVTVSS VL: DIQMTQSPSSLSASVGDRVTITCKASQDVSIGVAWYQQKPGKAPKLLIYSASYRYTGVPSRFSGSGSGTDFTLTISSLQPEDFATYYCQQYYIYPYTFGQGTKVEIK	nM	9.9

Now for the binder whose Kd we want.
Query: For hu2C4-g3.1 IgG1 (antibody, V domains shown) VH: EVQLVESGGGLVQPGGSLRLSCAASGFTFTDYTMDWVRQAPGKGLEWVADVNPNSGGSIYNQRFKGRFTLSVDRSKNTLYLQMNSLRAEDTAVYYCARLMSYGYFDYWGQGTLVTVSS VL: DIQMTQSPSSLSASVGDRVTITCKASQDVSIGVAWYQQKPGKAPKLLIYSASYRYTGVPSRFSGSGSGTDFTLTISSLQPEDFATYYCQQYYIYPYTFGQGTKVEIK , what is its reported Kd?
Reply: 6.4
